Target desc: Virion infectivity factor (Human immunodeficiency virus type 1 group M subtype B (isolate BH10)) + Virion infectivity factor (Human immunodeficiency virus type 1 group M subtype B (isolate BRU/LAI)) + Virion infectivity factor (Human immunodeficiency virus type 1 group M subtype B (isolate PCV12)) + Virion infectivity factor (Human immunodeficiency virus type 1 group M subtype B (isolate HXB2)) + DNA dC->dU-editing enzyme APOBEC-3G (Homo sapiens) (UniProt P69720+P69721+P69722+P69723+Q9HC16)
Assay protocol: inhibitors of Vif binding to APOBEC3G peptide, primary screen, biochemical, TR-FRET, GST-Vif 1-94, biotin-A3G peptide, dose response retest (AID 1117319);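 also: Vif residues 1-94 fused to GST binding biotinylated APOBEC3G peptide 110-148; 0% = full assay without inhibitor and 100% = GST in place of GST-Vif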
Conditions: hits give high values
Hit rate of the full screen: of about 260,000 compounds, about 1,500 (0.58%) were called active. Another 5% or so got no clear call; they are omitted. A selection follows. Measured potencies and affinities stand elsewhere.
Endpoint label: inhibition (%)
A number alone suffices; assume %.

Example entries and their recorded answers appear below.
>  <Compound>
O=C1C(c2ccccc2)c2ccccc2N1Cc1ccccc1 (stereo not drawn)

>  <Endpoint label>
inhibition

>  <Assay result>
-2.08

$$$$
>  <Compound>
CCCn1c(C)cc(C(=O)CN2C(=O)c3ccccc3S2(=O)=O)c1C

>  <Endpoint label>
inhibition

>  <Assay result>
0.72

$$$$
>  <Compound>
O=c1[nH]c(=O)n(Cc2ccccc2)c2nc(-c3cccs3)n(CCO)c12

>  <Endpoint label>
inhibition

>  <Assay result>
0.78

$$$$

Ask | Identify the reported inhibition for the following entry. `O=C1C(=Cc2ccco2)C(=O)c2ccccc21`
Reply | -3.58

Ask | Identify the reported inhibition for the following entry. `CCCCn1c(N)c(N(CCC(C)C)C(=O)CSc2nnc(C)s2)c(=O)[nH]c1=O`
Reply | 2.42

Ask | Identify the reported inhibition for the following entry. `COc1ccc(C(=O)CSc2nc3ccccc3n2CC(=O)c2ccccc2)cc1`
Reply | 2.41

Ask | Identify the reported inhibition for the following entry. `CCOC(=O)c1cc(-c2ccc(OC)cc2F)nc2c1c(C)nn2CCC#N`
Reply | 15.4

Ask | Identify the reported inhibition for the following entry. Cc1cc(C(=O)COC(=O)c2ccccc2O)c(C)n1CC1CCCO1 (stereo not drawn)
Reply | -14.1

Ask | Identify the reported inhibition for the following entry. `CN1/C(=C/C(=S)NC(=O)C2CCC2)C(C)(C)c2ccccc21`
Reply | 3.95

Ask | Identify the reported inhibition for the following entry. `Cc1ccc2c(c1)/C(=C/c1ccco1)C(=O)N2`
Reply | 6.3

Ask | Identify the reported inhibition for the following entry. CC1CCC(NC(=O)C2CCN(c3nc4ccccc4s3)CC2)CC1 (stereo not drawn)
Reply | 7.57

Ask | Identify the reported inhibition for the following entry. `CC(=O)c1sc(=S)n(Cc2ccccc2)c1C`
Reply | -9.02

Ask | Identify the reported inhibition for the following entry. `Cc1ccc2cccc(Oc3ncnc4scc(-c5ccccc5)c34)c2n1`
Reply | -1.8

Ask | Identify the reported inhibition for the following entry. `O=C(/C=C/c1ccccc1)Nn1cnnc1`
Reply | -6.05

Ask | Identify the reported inhibition for the following entry. `Cc1c(N/C(=N/S(=O)(=O)c2ccc(F)cc2)c2ccccc2)c(=O)n(-c2ccccc2)n1C`
Reply | 0.73

Ask | Identify the reported inhibition for the following entry. NNC(=O)C1CC1c1ccc(Cl)cc1 (stereo not drawn)
Reply | -1.47

Ask | Identify the reported inhibition for the following entry. CC(C)Cn1c2c(c(=O)[nH]c1=O)C(NS(=O)(=O)c1ccc(Cl)cc1)(C(F)(F)F)C(=O)N2 (stereo not drawn)
Reply | -5.6

Ask | Identify the reported inhibition for the following entry. CC1CCC2(CC1)NC(=O)N(CC(=O)NCc1ccc(Cl)cc1)C2=O (stereo not drawn)
Reply | -14

Ask | Identify the reported inhibition for the following entry. `CCn1c(C)cc(C(=O)CN2C(=O)c3ccccc3S2(=O)=O)c1C`
Reply | 6.44

Ask | Identify the reported inhibition for the following entry. `Cc1cc(C)cc(NC(=O)CSCc2cnn(-c3ccccc3)c2-n2cccc2)c1`
Reply | -0.62

Ask | Identify the reported inhibition for the following entry. `CCOc1ccc(NC(=O)CSCc2cnn(-c3ccccc3)c2-n2cccc2)cc1`
Reply | -1.2

Ask | Identify the reported inhibition for the following entry. COc1cccc(C2=NOC(C(=O)NCc3cccs3)C2)c1 (stereo not drawn)
Reply | -3.08

Ask | Identify the reported inhibition for the following entry. `CCCCN1C(=O)C(=O)N(CC(=O)c2ccc[nH]2)C1=O`
Reply | 5.74
